meta.source: patent US20240132431A1

# Measurement Target: Bcl-2 protein (Recombinant Human Bcl-2 Protein) (Homo sapiens)
# Construct: purchased Novus NBP2-34889
# Procedure Summary: Binding evaluation of mixture library compounds to Bcl-2 using AS-MS (affinity selection mass spectrometry)
# Particulars: AS-MS, mixture library, Bcl-2; replicate n = 1; ASMS Ratio(%)=(A−C)/B×100
Listed here: items and their measured ASMS ratio (%) n = 1.

Compound	Measurement Target	Uom	ASMS ratio (%) n = 1
CCOc1cccc(-c2ccc(CN3CCN(c4ccc(C(=O)N(CC)CC)nn4)CC3)cc2C)c1	Bcl-2 protein (Recombinant Human Bcl-2 Protein) (Homo sapiens)	%	2.1
CCOc1cncc(-c2ccc(CN3CCN(c4ccc(C(=O)NS(=O)(=O)c5ccc(NCCSc6ccccc6)c([N+](=O)[O-])c5)nn4)CC3)c3ccccc23)c1	Bcl-2 protein (Recombinant Human Bcl-2 Protein) (Homo sapiens)	%	10.4
CCOc1cccc(C#Cc2cc(C(=O)N3CCN(c4ccc(C(=O)NS(=O)(=O)c5ccc(NCCSc6ccccc6)c([N+](=O)[O-])c5)cc4)CC3)cc(C(F)(F)F)c2)c1	Bcl-2 protein (Recombinant Human Bcl-2 Protein) (Homo sapiens)	%	2.6
CCOc1cncc(-c2ccc(C(C)N3CCN(c4ccc(C(=O)NS(=O)(=O)c5ccc(NCCSc6ccccc6)c([N+](=O)[O-])c5)cc4)CC3)c(F)c2)c1 (stereo not drawn)	Bcl-2 protein (Recombinant Human Bcl-2 Protein) (Homo sapiens)	%	0.0
CCOc1cccc(-c2ccc(C(=O)N3CCN(c4ccc(C(=O)NS(=O)(=O)c5ccc(NCCSc6ccccc6)c([N+](=O)[O-])c5)nn4)CC3)cc2C)c1	Bcl-2 protein (Recombinant Human Bcl-2 Protein) (Homo sapiens)	%	8.2
CCOc1cncc(-c2ccc(C(=O)N3CCN(c4ccc(C(=O)NS(=O)(=O)CC56CC7CC(CC(C7)C5)C6)cc4)CC3)cc2C)c1	Bcl-2 protein (Recombinant Human Bcl-2 Protein) (Homo sapiens)	%	0.8

====

# Measurement Target: Bcl-2 protein (Recombinant Human Bcl-2 Protein) (Homo sapiens, UniProt P10415)
# Construct: purchased Novus NBP2-34889
# Sequence (P10415 whole entry): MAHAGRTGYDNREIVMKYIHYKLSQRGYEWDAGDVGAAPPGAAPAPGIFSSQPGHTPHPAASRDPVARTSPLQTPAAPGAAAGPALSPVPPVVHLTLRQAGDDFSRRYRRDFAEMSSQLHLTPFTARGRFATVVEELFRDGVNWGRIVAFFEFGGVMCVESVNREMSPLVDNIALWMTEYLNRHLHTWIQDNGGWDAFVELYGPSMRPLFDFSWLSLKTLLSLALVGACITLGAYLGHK
# Procedure Summary: Binding evaluation of mixture library compounds to Bcl-2 using AS-MS (affinity selection mass spectrometry)
# Particulars: n = 1
# Method: […] Then, analysis of the 1200 compounds was carried out for samples A, B, and C with TraceFinder 5.1 (Thermo Fisher Scientific) and CHANCE Software (in-house), and the ASMS Ratio (%) was calculated according to the following calculation formula. […]
// ASMS ratio (%) lookup, one value per entry
Property Measured: ASMS ratio (%)

Smiles Representation	Property Measured	Readout Number
CCOc1cccc(C#Cc2cc(C(=O)N3CCN(c4ccc(C(=O)NS(=O)(=O)C(C)(C)C)cc4)CC3)cc(C(F)(F)F)c2)c1	ASMS ratio (%)	0.0
CCOc1cncc(C#Cc2ccccc2C(=O)N2CCN(c3ccc(C(=O)NS(=O)(=O)C(C)(C)C)nn3)CC2)c1	ASMS ratio (%)	0.0
CCOc1cncc(-c2cnn(-c3cc(C(=O)N4CCN(c5ccc(C(=O)NS(=O)(=O)CCC(F)(F)F)nn5)CC4)cc(C(F)(F)F)c3)c2)c1	ASMS ratio (%)	0.0

====

Entries and their ASMS ratio (%) n = 2
# Measurement Target: Bcl-2 protein (Recombinant Human Bcl-2 Protein) (Homo sapiens)
# Construct: purchased Novus NBP2-34889
# Procedure Summary: Binding evaluation of mixture library compounds to Bcl-2 using AS-MS (affinity selection mass spectrometry)
# Particulars: AS-MS, mixture library, Bcl-2; replicate n = 2; ASMS Ratio(%)=(A−C)/B×100

Compound	ASMS ratio (%) n = 2
CCOc1cccc(-c2ccc(CN3CCN(c4ccc(C(=O)NS(=O)(=O)CC56CC7CC(CC(C7)C5)C6)nn4)CC3)cc2F)c1 [B2A077-01]	21.9
CCOc1cccc(-c2cc(CN3CCN(c4ccc(C(=O)NS(=O)(=O)CC56CC7CC(CC(C7)C5)C6)cc4)CC3)cc(C(F)(F)F)c2)c1 [B2A061-01]	−5.6
CCOc1cncc(-c2ccc(C(=O)N3CCN(c4ccc(C(=O)NS(C)(=O)=O)cc4)CC3)cc2F)c1 [B2I028-01]	0.0
CCOc1cccc(-c2cnn(-c3cc(C(=O)N4CCN(c5ccc(C(=O)NS(C)(=O)=O)nn5)CC4)cc(C(F)(F)F)c3)c2)c1 [B2I021-01]	0.0
CCOc1cccc(-c2ccc(CN3CCN(c4ccc(C(=O)N(CC)CC)nn4)CC3)cc2F)c1 [B4J077-01]	−5.5
CCOc1cncc(-c2cc(C(=O)N3CCN(c4ccc(C(=O)NS(=O)(=O)c5ccc(NCCSc6ccccc6)c([N+](=O)[O-])c5)nn4)CC3)cc(C(C)(C)C)c2)c1 [B2Q016-01]	6.5
